# TGI annotations
Test system: UO-31 renal
Experiment: NCI tumour cell line growth inhibition, 48 h

UO-31 renal assay, compound "Cc1cc(NCc2cc(Nc3ccnc4cc(Cl)ccc34)ccc2F)nc(N2CCSCC2)n1" , recorded TGI = 2.87 µM

UO-31 renal assay, compound C[N+]1([O-])[C@H]2CC(OC(=O)[C@H](CO)c3ccccc3)C[C@H]1[C@H]1O[C@H]12 (stereo partly specified) , recorded TGI = > 100 µM

UO-31 renal assay, compound "Nc1ccccc1OCCCOc1ccccc1N" , recorded TGI = > 100 µM

UO-31 renal assay, compound O=C1CC(C(COCc2ccccc2)OCc2ccccc2)CC(=O)N1 (stereo unspecified) , recorded TGI = > 100 µM

UO-31 renal assay, compound OC1(c2ccc(Cl)cc2)c2c(c3ccccc3c3ccccc23)C2=NCCN21 (stereo unspecified) , recorded TGI = 24.6 µM

====

System: UACC-257 melanoma
Assay: NCI tumour cell line growth inhibition, 48 h
# TGI annotations

Examples from the recorded data:
COc1ccc2c(c1)[nH]c(=O)c1c3cc(OC)c(OC)cc3cn21; 29.5 µM
COc1ccc(-n2cc(-c3cc(OC)c(OC)c(OC)c3)[nH]c2=S)cc1Cl; > 100 µM
O=C(c1ccccc1O)c1cc(-c2ncc3c(=O)c4ccccc4oc3n2)c(-c2ccccc2O)[nH]c1=O; 47.1 µM
NCCS(=O)(=O)O; > 100 µM
Oc1ccc(Oc2cnc3cc(Cl)ccc3n2)cc1; > 100 µM
O=C(Nc1ccc(Sc2ccc(N=Nc3c(O)c(S(=O)(=O)O)cc4cc(S(=O)(=O)O)ccc34)cc2)cc1)c1ccc(N=Nc2c(O)c(S(=O)(=O)O)cc3cc(S(=O)(=O)O)ccc23)cc1; > 100 µM
O=C1c2cc3c(cc2CC1Cc1ccc2c(c1)CCC2)CCC3 (centres undefined); > 100 µM
O=C(c1ccco1)c1nc2cc(C(F)(F)F)ccc2[n+]([O-])c1C(F)(F)F; > 100 µM

From here, focus on the item given below.
Please fill in: TGI reported for COc1cc(C2c3cc(OC)c(OC)c(O)c3C(=O)C3CCC(=O)N32)cc(OC)c1OC (centres undefined) = > 100 µM

====

Test system: SNB-75 CNS
Experiment: NCI tumour cell line growth inhibition, 48 h; in the data active means GI50 below about 0.43 µM; inactive means the rest
The reply should be one of these categories: active, inactive

Nc1nccc2c1ccn2-c1cccc(NC(=O)c2ccc(N3CCOCC3)c(C(F)(F)F)c2)c1; active

API: the following record is the query input.
Q. Assay result, entry "O=C(NO)c1ccc(Cn2c(=O)n(-c3ccccc3)c(=O)c3ccccc32)cc1" — outcome?
A. inactive

====

# TGI annotations
System: MALME-3M melanoma
Experiment: NCI tumour cell line growth inhibition, 48 h

O=S1(=O)OCCCOS(=O)(=O)C1(Br)Br; > 100 µM
COc1ccc(CCCN2c3ccccc3Sc3ccccc32)cc1; > 100 µM
O=C1/C(=C/c2ccc(Cl)c(Cl)c2)CNC/C1=C\c1ccc(Cl)c(Cl)c1; > 66.5 µM

Please fill in: TGI reported for "CC[C@H](C)[C@H](NC(=O)NC(C)(C)C)C(=O)N(C)[C@H](C[C@@H](OC(C)=O)c1nc(C(=O)N[C@@H](Cc2ccccc2)C[C@H](C)C(=O)OC)cs1)C(C)C" = > 25 µM

Please fill in: TGI reported for "O=C1CCCCN1C(=O)c1ccc([N+](=O)[O-])cc1" = > 100 µM

====

Tested on: UACC-257 melanoma
Experiment: NCI tumour cell line growth inhibition, 48 h
# TGI annotations

Examples from the recorded data:
O=S1c2ccccc2NC(c2ccc3ccccc3c2)CC1c1ccccc1 (stereo unspecified); > 100 µM
CCN(CC)C1Oc2cc3c(cc2C(c2cccc(OC)c2O)C1C)OCO3 (stereo unspecified); > 50.4 µM
Cc1ccc(N=C2SC(=NN(C)C)SC2=Nc2ccc(C)cc2)cc1; > 100 µM
CC1C(C#N)(C#N)C(C#N)=C(N)C1(C)[N+](=O)[O-] (stereo unspecified); > 100 µM
COc1ccc(C(=O)/C=C/c2cc(-c3ccc4c(c3)OCO4)n[nH]2)cc1OC; 22.1 µM

Please fill in: TGI reported for CS(=O)(=O)OCC1CCCCCCCCCCC12SCCCS2 (stereo unspecified) = > 100 µM

Please fill in: TGI reported for OC1(c2ccc(Cl)cc2)c2c(c3ccccc3c3ccccc23)C2=NCCN21 (stereo unspecified) = 49.7 µM

Please fill in: TGI reported for CCCCCCCCCCCCCCCC(=O)OCC1OC(OC)C(NC(=O)N(CCCl)N=O)C(O)C1O (stereo unspecified) = 47.8 µM

Please fill in: TGI reported for "O=C1/C(=C/c2ccc(Cl)c(Cl)c2)CNC/C1=C\c1ccc(Cl)c(Cl)c1" = 72.8 µM

Please fill in: TGI reported for "CCn1c(=O)c2c3ccc(OC)cc3[nH]c2c2ccc(OC)cc21" = > 100 µM

Please fill in: TGI reported for "O=C1CCCC(O)=C1SC1=C(O)CCCC1=O" = > 100 µM

====

System: ACHN renal
Assay: NCI tumour cell line growth inhibition, 48 h
# TGI annotations
State the answer as a number, implicitly in µM.

Examples from the recorded data:
Nc1nccc2c1ccn2-c1cccc(NC(=O)c2ccc(N3CCOCC3)c(C(F)(F)F)c2)c1; 11.5
Cc1ccc(-c2cc(-c3ccc(C)cc3)nc(N3CCN(CCNc4ccnc5cc(Cl)ccc45)CC3)n2)cc1; 14.5
O=C(Nc1ccc(Nc2ccncc2)cc1)c1ccc(Nc2ccnc3ccc([N+](=O)[O-])cc23)cc1[N+](=O)[O-]; 37.2
CC(C)C1=C(Cc2ccccc2)C(=O)O/C1=C\c1ccc(O)c(Cl)c1; 28.1

From here, focus on the item given below.
Please fill in: TGI reported for "O=C1/C(=C/c2ccc(Cl)cc2)CN(C(=O)CCN2CCC(=NO)CC2)C/C1=C\c1ccc(Cl)cc1" = 1.56

====

System: A498 renal
Assay: NCI tumour cell line growth inhibition, 48 h
# TGI annotations
State the answer as a number, implicitly in µM.

Nc1nccc2c1ccn2-c1cccc(NC(=O)c2ccc(N3CCOCC3)c(C(F)(F)F)c2)c1; 2.05

Please fill in: TGI reported for "CN1CCN(c2ccc3nc(-c4[nH]ncc4Nc4ncnc5c4OCCCN5)[nH]c3c2)CC1" = 0.0341

Please fill in: TGI reported for "O=C(Cc1csc2nc(-c3ccc(Br)cc3)cn12)N/N=C/c1ccc(Cl)cc1Cl" = 62.7

Please fill in: TGI reported for "O=C(Nc1ccc(Oc2ccc(NC(=O)Nc3ccc([N+](=O)[O-])cc3)cc2)cc1)Nc1ccc([N+](=O)[O-])cc1" = 7.23

Please fill in: TGI reported for "O=C1/C(=C/c2ccc(Cl)c(Cl)c2)CNC/C1=C\c1ccc(Cl)c(Cl)c1" = 32.2

Please fill in: TGI reported for "CC(=O)c1[nH]c(Nc2ccc(C)cc2)c(C(=S)Nc2ccccc2)c1N" = 28.8

Please fill in: TGI reported for "O=c1c2c(=NCCN3CCCC3)cc3c(=O)n(CCCN4CCOCC4)c(=O)c4ccc(c(O)n1CCCN1CCOCC1)c2c4-3" = 0.981

Please fill in: TGI reported for "CCSc1ccc([C@@H]2[C@@H](N)C(=O)N2c2cc(OC)c(OC)c(OC)c2)cc1" = 8.29

Please fill in: TGI reported for "COc1cc2c(c(OC)c1OC)-c1ccc(SC)c(=O)cc1[C@@H](NC(=O)c1ccc([N+](=O)[O-])cc1)CC2" = 3.57

Please fill in: TGI reported for O=C1/C(=C/c2ccc(Cl)cc2)CCC1CN1CCOCC1 (stereo not given) = 36

Please fill in: TGI reported for CC(=O)OCC1OC(SC2=NC(=O)/C(=C/c3ccccc3)S2)C(OC(C)=O)C(OC(C)=O)C1OC(C)=O (stereo not given) = 81.2

Please fill in: TGI reported for O=C1CC(c2ccsc2)c2snc(-c3ccc(Cl)cc3)c2N1 (stereo not given) = 7.94

Please fill in: TGI reported for "O=C1CCSC(=S)N1c1ccc(Br)c(Cl)c1" = 48.4

Please fill in: TGI reported for "CC[C@H](C)[C@H](NC(=O)NC(C)(C)C)C(=O)N(C)[C@H](C[C@@H](OC(C)=O)c1nc(C(=O)N[C@@H](Cc2ccccc2)C[C@H](C)C(=O)OC)cs1)C(C)C" = 4.31

Please fill in: TGI reported for CN(C)CC1CCCc2ccccc2C1=O (stereo not given) = 49.6

====

Test system: HOP-62 NSCLC
Assay: NCI tumour cell line growth inhibition, 48 h
OUTCOME MEASURE: TGI

Examples from the recorded data:
Cc1cn([C@@H]2C[C@H](CO)[C@@H]2O)c(=O)[nH]c1=O; > 100 µM
CN(C)C(=S)/N=c1\ss/c(=N\C(=S)N(C)C)n1Cc1ccco1; > 100 µM
O=C(CC(c1ccccc1)C(C(=O)c1ccncc1)C(CC(=O)c1ccncc1)c1ccccc1)c1ccncc1 (stereo not given); > 100 µM
O=C(/C=C/c1ccccc1O)c1cccc2ccccc12; > 100 µM
O=C(CCN1CCCC1)Nc1ccc2c(NCCc3ccccc3)c3ccccc3nc2c1; 1.76 µM
COc1cc(C(=O)O/N=C(\N)Cc2cccc3ccccc23)cc(OC)c1OC; 18.7 µM

Please fill in: TGI reported for "COc1ccc(Cn2c3ccc([N+](=O)[O-])cc3c(=O)n2Cc2ccccn2)cc1" = > 100 µM

Please fill in: TGI reported for "COc1cc2cnc(-c3ccccc3)cc2cc1OC" = > 100 µM

Please fill in: TGI reported for "COc1ccc2c(c1)[nH]c(=O)c1c3cc(OC)c(OC)cc3cn21" = 21 µM

Please fill in: TGI reported for C[N+]1([O-])[C@H]2CC(OC(=O)[C@H](CO)c3ccccc3)C[C@H]1[C@H]1O[C@H]12 (stereo not given in full) = > 100 µM
